TGT: Human BCL-XL protein (N-terminal HiBiT tagged BCL-XL in HT1080 cells) (Homo sapiens, UniProt Q07817)
Construct: expressed in transfected cells; host or cells: HT-1080 (ATCC CCL-121), stably transduced with lentivirus pLV-UBC-N-HiBiT-BCL-XL-PGK-puro and selected with puromycin
Sequence (Q07817 whole entry): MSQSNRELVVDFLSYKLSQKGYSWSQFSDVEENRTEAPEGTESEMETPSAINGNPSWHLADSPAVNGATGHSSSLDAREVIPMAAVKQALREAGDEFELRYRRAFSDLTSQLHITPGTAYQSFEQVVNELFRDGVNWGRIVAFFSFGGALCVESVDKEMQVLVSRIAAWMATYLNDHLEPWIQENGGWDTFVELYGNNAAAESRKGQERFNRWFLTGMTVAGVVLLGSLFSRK
EXPERIMENT NOTES: HiBiT based degradation assay
Format: cell-based
EXPERIMENTAL PARAMETERS: BCL-XL degradation normalized with DMSO control; HT1080 cells expressing HiBiT-BCL-XL; 24 h

MOLECULE	Ymin (24 h)
Cc1c(OCCCC2CCN(C(C)(C)C(=O)Nc3ccc4c(C5CCC(=O)NC5=O)nn(C)c4c3)CC2)cccc1-c1ccc(N2CCc3cccc(C(=O)Nc4nc5ccccc5s4)c3C2)nc1C(=O)O (stereo not drawn)	B (50% ≤ Ymin < 70%)
Cc1c(Oc2ccc(CCCC(=O)N3CCN(c4ccc5c(C6CCC(=O)NC6=O)nn(C)c5c4)CC3)cc2)cccc1-c1ccc(N2CCc3cccc(C(=O)Nc4nc5ccccc5s4)c3C2)nc1C(=O)O (stereo not drawn)	B (50% ≤ Ymin < 70%)

----------
TGT: Human BCL-XL protein (N-terminal HiBiT tagged BCL-XL in HT1080 cells) (Homo sapiens)
Construct: expressed in transfected cells; host or cells: HT-1080 (ATCC CCL-121), stably transduced with lentivirus pLV-UBC-N-HiBiT-BCL-XL-PGK-puro and selected with puromycin
EXPERIMENT NOTES: HiBiT based degradation assay
Assay type: cell-based
EXPERIMENTAL PARAMETERS: BCL-XL degradation; HT1080 cells expressing HiBiT-BCL-XL; 6 h; read-out: EC50 (6 h)
PARAMETER: DC50

COMPOUND	DC50
Cc1c(Oc2ccc(CCC(=O)N3CCN(c4ccc5c(C6CCC(=O)NC6=O)nn(C)c5c4)CC3)cc2)cccc1-c1ccc(N2CCc3cccc(C(=O)Nc4nc5ccccc5s4)c3C2)nc1C(=O)O (centres unmarked)	1000 to 10000 nM
Cc1cc(OCCCC2CCN(CC(=O)Nc3cccc4c(C5CCC(=O)NC5=O)nn(C)c34)CC2)ccc1-c1ccc(N2CCc3cccc(C(=O)Nc4nc5ccccc5s4)c3C2)nc1C(=O)O (centres unmarked)	< 100 nM
Cc1c(O[C@H](C)CCC2CCN(CC(=O)Nc3ccc4c(C5CCC(=O)NC5=O)nn(C)c4c3)CC2)cccc1-c1ccc(N2CCc3cccc(C(=O)Nc4nc5ccccc5s4)c3C2)nc1C(=O)O (some centres unmarked) [Compound 162b]	100 to 1000 nM
Cc1c(OCCCC2CCN(CCCOc3ccc4c(C5CCC(=O)NC5=O)nn(C)c4c3)CC2)cccc1-c1ccc(N2CCc3cccc(C(=O)Nc4nc5ccccc5s4)c3C2)nc1C(=O)O (centres unmarked)	100 to 1000 nM

Notebook entry, Human BCL-XL protein (N-terminal HiBiT tagged BCL-XL in HT1080 cells) (Homo sapiens) assay: DC50 of Cc1c(OCCCN2CCN(CC(=O)N3CCN(c4ccc5c(C6CCC(=O)NC6=O)nn(C)c5c4)CC3)CC2)cccc1-c1ccc(N2CCc3cccc(C(=O)Nc4nc5ccccc5s4)c3C2)nc1C(=O)O (centres unmarked) = ?
< 100 nM

----------
TGT: Human BCL-XL protein (N-terminal HiBiT tagged BCL-XL in HT1080 cells) (Homo sapiens, UniProt Q07817)
Construct: expressed in transfected cells; host or cells: HT-1080 (ATCC CCL-121), stably transduced with lentivirus pLV-UBC-N-HiBiT-BCL-XL-PGK-puro and selected with puromycin
EXPERIMENT NOTES: HiBiT based degradation assay
Type: cell-based
EXPERIMENTAL PARAMETERS: BCL-XL degradation; HT1080 cells expressing HiBiT-BCL-XL; 24 h; read-out: EC50 (24 h)
PARAMETER: DC50

Some solved cases for reference:
MOLECULE	PARAMETER	ASSAY RESULT
Cc1c(OCCCC[C@H]2CCCN(CC(=O)Nc3ccc4c(C5CCC(=O)NC5=O)nn(C)c4c3)C2)cccc1-c1ccc(N2CCc3cccc(C(=O)Nc4nc5ccccc5s4)c3C2)nc1C(=O)O (stereo partly drawn) [Compound 202a]	DC50	< 100 nM
Cc1c(OCC[C@@H]2CCN(CC(=O)Nc3cccc4c(C5CCC(=O)NC5=O)nn(C)c34)C2)cccc1-c1ccc(N2CCc3cccc(C(=O)Nc4nc5ccccc5s4)c3C2)nc1C(=O)O (stereo partly drawn) [Compound 231a]	DC50	< 100 nM

API: the following record is the query input.
Request the reported DC50 associated with Cc1c(OCCCCN2CCC(CN3CCN(c4ccc5c(C6CCC(=O)NC6=O)nn(C)c5c4)CC3)CC2)cccc1-c1ccc(N2CCc3cccc(C(=O)Nc4nc5ccccc5s4)c3C2)nc1C(=O)O (stereo not drawn) [Compound 235]
< 100 nM

----------
TGT: Human BCL-XL protein (N-terminal HiBiT tagged BCL-XL in HT1080 cells) (Homo sapiens, UniProt Q07817)
Construct: expressed in transfected cells; host or cells: HT-1080 (ATCC CCL-121), stably transduced with lentivirus pLV-UBC-N-HiBiT-BCL-XL-PGK-puro and selected with puromycin
EXPERIMENT NOTES: HiBiT based degradation assay
Type: cell-based
EXPERIMENTAL PARAMETERS: BCL-XL degradation; HT1080 cells expressing HiBiT-BCL-XL; 24 h; read-out: EC50 (24 h)
PARAMETER: DC50

Some solved cases for reference:
COMPOUND	DC50
Cc1c(Oc2ccc(CCCC(=O)N3CCN(c4cccc5c(C6CCC(=O)NC6=O)nn(C)c45)CC3)cc2)cccc1-c1ccc(N2CCc3cccc(C(=O)Nc4nc5ccccc5s4)c3C2)nc1C(=O)O (centres unmarked)	< 100 nM
Cc1c(O[C@H]2CC[C@H](CCCN3CCN(c4ccc5c(C6CCC(=O)NC6=O)nn(C)c5c4)C[C@@H]3C(F)(F)F)CC2)cccc1-c1ccc(N2CCc3cccc(C(=O)Nc4nc5ccccc5s4)c3C2)nc1C(=O)O (some centres unmarked) [Compound 347a]	< 100 nM
Cc1c(OCC2CC3(CCN(CCN4CCN(c5cccc6c(C7CCC(=O)NC7=O)nn(C)c56)CC4)CC3)C2)cccc1-c1ccc(N2CCc3cccc(C(=O)Nc4nc5ccccc5s4)c3C2)nc1C(=O)O (centres unmarked)	< 100 nM
Cc1c(O[C@H]2CC[C@H](CCCN3CCN(c4cccc5c(C6CCC(=O)NC6=O)nn(C)c45)[C@@H](C)C3)CC2)cccc1-c1ccc(N2CCc3cccc(C(=O)Nc4nc5ccccc5s4)c3C2)nc1C(=O)O (some centres unmarked) [Compound 274b]	< 100 nM

Request the reported DC50 associated with Cc1cc(OCC2CC3(CCN(CC(=O)Nc4ccc5c(C6CCC(=O)NC6=O)nn(C)c5c4)CC3)C2)ccc1-c1ccc(N2CCc3cccc(C(=O)Nc4nc5ccccc5s4)c3C2)nc1C(=O)O (centres unmarked)
< 100 nM

----------
TGT: Human BCL-XL protein (N-terminal HiBiT tagged BCL-XL in HT1080 cells) (Homo sapiens, UniProt Q07817)
Construct: expressed in transfected cells; host or cells: HT-1080 (ATCC CCL-121), stably transduced with lentivirus pLV-UBC-N-HiBiT-BCL-XL-PGK-puro and selected with puromycin
EXPERIMENT NOTES: HiBiT based degradation assay
Format: cell-based
EXPERIMENTAL PARAMETERS: BCL-XL degradation; HT1080 cells expressing HiBiT-BCL-XL; 24 h; read-out: EC50 (24 h)
Recorded DC50 by entry

Some solved cases for reference:
MOLECULE	DC50
Cc1c(OCCCC2CCN([C@@H](C)C(=O)Nc3cccc4c(C5CCC(=O)NC5=O)nn(C)c34)CC2)cccc1-c1ccc(N2CCc3cccc(C(=O)Nc4nc5ccccc5s4)c3C2)nc1C(=O)O (some centres unmarked) [Compound 216a]	< 100 nM
Cc1c(OCCCN2CCN(CC(=O)Nc3cccc4c(C5CCC(=O)NC5=O)nn(C)c34)[C@@H](C(F)(F)F)C2)cccc1-c1ccc(N2CCc3cccc(C(=O)Nc4nc5ccccc5s4)c3C2)nc1C(=O)O (some centres unmarked) [Compound 218a]	100 to 1000 nM
Cc1c(O[C@H]2CC[C@H](CCC(C)(C)N3CCN(c4cccc5c(C6CCC(=O)NC6=O)nn(C)c45)CC3)CC2)cccc1-c1ccc(N2CCc3cccc(C(=O)Nc4nc5ccccc5s4)c3C2)nc1C(=O)O (some centres unmarked) [Compound 341a]	< 100 nM
Cc1c(OCCCC2CCN(CCN3CCC(c4cccc5c(C6CCC(=O)NC6=O)nn(C)c45)CC3)CC2)cccc1-c1ccc(N2CCc3cccc(C(=O)Nc4nc5ccccc5s4)c3C2)nc1C(=O)O (centres unmarked)	< 100 nM

API: the following record is the query input.
Request the reported DC50 associated with Cc1c(OCCCN2CCN(CCCOc3ccc4c(C5CCC(=O)NC5=O)nn(C)c4c3)CC2)cccc1-c1ccc(N2CCc3cccc(C(=O)Nc4nc5ccccc5s4)c3C2)nc1C(=O)O (centres unmarked)
< 100 nM
